IC50 values by entry
methodSummary: Antiplatelet activity in rabbit platelet rich plasma assessed as inhibition of ADP-induced aggregation treated for 5 mins prior to ADP-challenge
Assay type: functional
reportedConditions: Oryctolagus cuniculus
Give just the numeric value; µM need not be written.

Cc1nc(C)c(COc2ccccc2C(=O)O)nc1C 400

# get_value(readout='IC50', item= Cc1nc(C)c(CSc2nnc(-c3cccs3)n2N)nc1C )
810

----------
Listed compounds paired with reported inhibition at 400 µM
methodSummary: Antiplatelet activity in rabbit platelet rich plasma assessed as inhibition of ADP-induced aggregation at 0.4 mM treated for 5 mins prior to ADP-challenge relative to control
Type: functional
reportedConditions: Oryctolagus cuniculus
Give your result in % as a bare value.

Cc1nc(C)c(CSc2nc(C)c(CC(=O)O)s2)nc1C 46.9
Cc1nc(C)c(CNC(=O)CN2CCCC2=O)nc1C 36
Cc1nc(C)c(COc2ccccc2C(=O)O)nc1C 51.7

I would be grateful if you could share the reported inhibition at 400 µM for Cc1nc(C)c(Cn2nnc3ccccc32)nc1C .
28.3
